molecular target: HLA-B*07:02; experiment: IEDB peptide-MHC binding, purified MHC/competitive/radioactivity; bounds were set here for any values at or beyond the usual limits of such assays; settings: source organism: unidentified
REPORTED_METRIC: IC50 (nM)

See these solved cases before continuing.
// query Respond only with IC50 recorded for `PKASSGSFSL`
// result 11300

// query Respond only with IC50 recorded for `LPRGGSVLVTCG`
// result 554

// query Respond only with IC50 recorded for `PLRDARVSDL`
// result 8490

// query Respond only with IC50 recorded for `VPAQSRPCVG`
// result 4590

// query Respond only with IC50 recorded for `SPLAASKECAV`
// result 367

(P) NPRGARVIAL
(Q) PSTLNVGTL
// query Param metric = IC50; output whichever of P , Q has the minimum value. Choose, then provide that item's label.
// result P

(P) GVWEEVGCAKG
(Q) APRRPTQGTVTF
// query Param metric = IC50; output whichever of P , Q has the minimum value. Choose, then provide that item's label.
// result Q
